# SYSTEM_NAME: HIV-1 Env of KER2018.11 (HIV-1)
# ASSAY_COMMENT: cell-based or functional assay
Binarize neutralization IC50 at 2 µg/mL; below is Condition met, at or above is Condition not met.

For orientation, consider the following solved cases.
CAP256-VRC26.01 (antibody, V domains shown) VH: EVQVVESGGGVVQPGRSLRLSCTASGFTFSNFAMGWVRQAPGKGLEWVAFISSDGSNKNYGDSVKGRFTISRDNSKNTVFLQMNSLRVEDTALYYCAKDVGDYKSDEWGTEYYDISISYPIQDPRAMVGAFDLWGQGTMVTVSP VL: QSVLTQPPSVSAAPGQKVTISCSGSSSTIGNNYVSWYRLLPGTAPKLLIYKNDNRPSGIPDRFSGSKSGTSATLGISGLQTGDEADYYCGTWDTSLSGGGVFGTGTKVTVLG	Condition not met
CAP256-VRC26.09 (antibody, V domains shown) VH: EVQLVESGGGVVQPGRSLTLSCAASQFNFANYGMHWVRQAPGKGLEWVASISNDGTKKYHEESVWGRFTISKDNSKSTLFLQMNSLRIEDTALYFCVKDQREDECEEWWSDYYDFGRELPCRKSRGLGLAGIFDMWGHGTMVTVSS VL: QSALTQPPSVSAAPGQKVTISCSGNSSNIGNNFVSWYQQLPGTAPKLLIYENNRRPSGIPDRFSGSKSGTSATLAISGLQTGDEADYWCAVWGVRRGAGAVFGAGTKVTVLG	Condition met
CAP256-VRC26.07 (antibody, V domains shown) VH: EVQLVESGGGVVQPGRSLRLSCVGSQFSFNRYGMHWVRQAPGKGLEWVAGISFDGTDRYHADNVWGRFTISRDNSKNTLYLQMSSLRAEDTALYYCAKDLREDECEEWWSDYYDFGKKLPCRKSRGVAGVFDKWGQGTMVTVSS VL: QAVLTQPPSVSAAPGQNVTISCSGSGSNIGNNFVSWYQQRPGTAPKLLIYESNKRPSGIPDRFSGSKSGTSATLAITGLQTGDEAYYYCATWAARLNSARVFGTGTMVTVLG	Condition not met
CAP256-VRC26.11 (antibody, V domains shown) VH: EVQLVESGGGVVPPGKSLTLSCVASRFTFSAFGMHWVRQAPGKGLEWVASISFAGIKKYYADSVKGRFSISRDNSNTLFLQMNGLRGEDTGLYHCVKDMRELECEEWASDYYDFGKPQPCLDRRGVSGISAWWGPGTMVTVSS VL: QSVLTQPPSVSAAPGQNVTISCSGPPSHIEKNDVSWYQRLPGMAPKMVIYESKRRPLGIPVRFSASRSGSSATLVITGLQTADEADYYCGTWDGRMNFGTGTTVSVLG	Condition met
CAP256-VRC26.03 (antibody, V domains shown) VH: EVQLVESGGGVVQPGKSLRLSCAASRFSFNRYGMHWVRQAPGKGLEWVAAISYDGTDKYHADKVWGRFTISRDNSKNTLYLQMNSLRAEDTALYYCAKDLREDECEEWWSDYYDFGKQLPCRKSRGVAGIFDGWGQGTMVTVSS VL: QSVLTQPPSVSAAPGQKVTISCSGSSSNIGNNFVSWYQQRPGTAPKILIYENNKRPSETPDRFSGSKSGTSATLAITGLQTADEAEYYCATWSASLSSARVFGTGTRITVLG	Condition met

Kindly consider the entry below.
Take the binder CAP256-VRC26.06 (antibody, V domains shown) VH: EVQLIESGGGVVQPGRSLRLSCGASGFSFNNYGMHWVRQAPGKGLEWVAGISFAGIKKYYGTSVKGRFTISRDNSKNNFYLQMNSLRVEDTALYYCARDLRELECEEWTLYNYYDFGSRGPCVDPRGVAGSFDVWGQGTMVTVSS VL: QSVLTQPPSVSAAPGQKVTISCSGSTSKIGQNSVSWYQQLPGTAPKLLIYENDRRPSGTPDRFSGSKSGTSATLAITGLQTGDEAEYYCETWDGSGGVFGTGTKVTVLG and say whether its neutralization IC50 is less than 2 µg/mL. Condition not met
